I'd be grateful if you could share measured pest or weed control at 17.5 g/ha for these entries.
Tested on: RoundUp Ready GLXMA (HT variety soybean)
Assay: Greenhouse evaluation of broadleaf volunteer crop control, RoundUp ready soybean
Type: in vivo, Glycine max
Conditions: Glycine max, 504 h, 17.5 g ae/ha; greenhouse, 2 to 3 leaf stage; after 21 days; 0 no injury, 100 complete kill; read-out: Average Percent Crop Control after Treatment, RoundUp Ready GLXMA
Kindly answer with a numeric value in %, unit omitted.

Query for RoundUp Ready GLXMA (HT variety soybean): what pest or weed control at 17.5 g/ha does the record show for Cc1ccc(-c2cc(N)c(Cl)c(C(=O)O)n2)cc1 ?
100

Query for RoundUp Ready GLXMA (HT variety soybean): what pest or weed control at 17.5 g/ha does the record show for COc1c(Cl)ccc(-c2cc(N)c(Cl)c(C(=O)O)n2)c1F [drawing 15] ?
100

Query for RoundUp Ready GLXMA (HT variety soybean): what pest or weed control at 17.5 g/ha does the record show for Nc1c(F)c(-c2ccc3c(c2)OCO3)nc(C(=O)O)c1Cl ?
98

Query for RoundUp Ready GLXMA (HT variety soybean): what pest or weed control at 17.5 g/ha does the record show for COC(=O)c1nc(-c2ccc(Cl)cc2OC)cc(N)c1Cl ?
100

Query for RoundUp Ready GLXMA (HT variety soybean): what pest or weed control at 17.5 g/ha does the record show for Cc1c(Cl)ccc(-c2cc(N)c(Cl)c(C(=O)O)n2)c1F ?
100

Query for RoundUp Ready GLXMA (HT variety soybean): what pest or weed control at 17.5 g/ha does the record show for Nc1cc(-c2ccc(Cl)cc2F)nc(C(=O)O)c1Cl ?
100

Query for RoundUp Ready GLXMA (HT variety soybean): what pest or weed control at 17.5 g/ha does the record show for COc1c(Cl)ccc(-c2nc(C(=O)O)c(Cl)c(N)c2F)c1F [drawing 11] ?
100
